# Test system: SK-OV-3 ovarian
# Assay overview: NCI-60 one-dose screen, 48 h (100 = growth as untreated, 0 = no growth, -100 = all killed)
# Applied conditions: 10 µM unless noted
This is part of a sample that, as a whole, favours compounds with a hit. Of some 83,000 tested, about 20% had one in any assay.
# growth values compiled below
Record the value in %, omitting the unit from your answer.

As a guide, the following entries are already answered.
compound=C=C1C(=O)O[C@H]2[C@H]1CC/C(COC(=O)NCc1ccccc1OC)=C\CC[C@@]1(C)O[C@@H]21 endpoint_name=growth assay_value=85.8
compound=CC(=O)Nc1scc[n+]1Cc1ccccc1 endpoint_name=growth assay_value=99.5
compound=O=S(=O)(NCCNc1nccc(-c2c(-c3cccc(O)c3)nc3sccn23)n1)c1ccc(F)cc1 endpoint_name=growth assay_value=85.9

# value lookup — system SK-OV-3 ovarian, readout growth, item CCN(CC)CCCC(C)Nc1c2ccc(Cl)cc2nc2cc(OC)c(OC)cc12 (stereo not given)
40.5

Then what about the compound CCN(CC)CCOC(=O)C(c1ccccc1)(c1ccccc1)C(C)C ?
81.9

Then what about the compound Cc1cc(C(C)(C)C)ccc1S ?
105

* * *

# growth values compiled below
# Tested on: SW-620 colon
# Assay overview: NCI-60 one-dose screen, 48 h (100 = growth as untreated, 0 = no growth, -100 = all killed)
# Applied conditions: 10 µM unless noted
This is part of a sample that, as a whole, favours compounds with a hit. Of some 83,000 tested, about 20% had one in any assay.
Record the value in %, omitting the unit from your answer.

compound=COc1cccc(CC(C)=C(c2ccc(OCCN3CCCCC3)cc2)c2ccc(OCCN3CCCCC3)cc2)c1 assay_value=-71.2
compound=C=C(C)[C@@H]1CC[C@]2(C(=O)O)CC[C@]3(C)[C@H](CC[C@@H]4[C@@]5(C)C[C@@H](CC#Cc6ccc(C(F)(F)F)cc6)[C@H](O)C(C)(C)[C@@H]5CC[C@]43C)[C@@H]12 assay_value=15
compound=COc1cc(-c2nn(-c3cccc(NC(=O)c4ccc(Cl)c(C(F)(F)F)c4)c3)cc2-c2ccncc2)ccc1Cl assay_value=36.1
compound=COc1ccccc1CNCCCN1C(=O)c2ccc3c4c(ccc(c24)C1=O)C(=O)N(CCCNCCCCNCCCN)C3=O assay_value=-36.5
compound=CCCCCCCC/C=C/CCCCCCCC1=NC(C)(C)CN1C(C)(C)CO assay_value=-85.1
compound=COc1ccc(-n2c(-c3ccccc3)c(-c3ccccc3)c3c(SCC(=O)N/N=C/c4ccc(Cl)cc4)ncnc32)cc1 assay_value=99
compound="CC(C)C(C(=O)NCCN1CCOCC1)N1C(=O)/C(=C/c2ccc(Br)cc2)SC1=S (stereo unspecified)" assay_value=102
compound=Cc1ccc(/C=C2\CN(C(=O)CCN3CCC(=NO)CC3)C/C(=C\c3ccc(C)cc3)C2=O)cc1 assay_value=-34.1

I am curious: what growth value has been reported for N#Cc1c(-c2ccccc2)nc(SCC(=O)N2CCN(c3ccccc3)CC2)[nH]c1=O ?
111

Then what about the compound C=C[C@@H]1C[C@H](O)Cc2cc(F)ccc2N1 ?
98.7

Then what about the compound CCOC(=O)C1=C(C)NC(C)=C(C(=O)OCC)C1(C)C ?
117

* * *

# growth values compiled below
# Tested on: EKVX NSCLC
# Assay overview: NCI-60 one-dose screen, 48 h (100 = growth as untreated, 0 = no growth, -100 = all killed)
# Applied conditions: 10 µM unless noted
Compounds without any hit were thinned out: in the full panel of roughly 83,000, 20% have a hit.
Record the value in %, omitting the unit from your answer.

molecule=O=C(O)Cc1cccc(=O)c(O)c1C(=O)O endpoint_name=growth assay_value=110

I am curious: what growth value has been reported for CC(C)C1=CC2=C(C=O)C[C@@H]3[C@](C)(CCC[C@@]3(C)C(=O)OCC#CCN3CCCC3)[C@H]2CC1 ?
98.2

Then what about the molecule O=C(Nc1ccc(Cl)c(Cl)c1)NS(=O)(=O)c1cnccc1Oc1ccc(F)cc1 ?
15.1

Then what about the molecule NC(=O)c1c(NC(=S)Nc2ccc(OC(F)(F)F)cc2)sc2c1CCC1(C2)OCCO1 ?
93.1

Then what about the molecule CCC(C)/C(=C\C#N)NCCCN/C(=C/C#N)C(C)CC (stereo unspecified) ?
101

Then what about the molecule C=CCSc1n[nH]c(-c2cccs2)n1 ?
108

Then what about the molecule COc1ccc(-c2nc(/C=C3/C(=O)Nc4ccc(F)cc43)c3ccccn23)cc1 ?
123

* * *

# Tested on: A549/ATCC NSCLC
# Assay overview: NCI-60 one-dose screen, 48 h
# Applied conditions: 10 µM unless noted
About 83,000 compounds went through this panel and 20% of them were active in at least one assay; those are over-represented in the sample as a whole. The source made the active and inactive calls. How the source made its calls: active means growth percent below 10; inactive means the rest.
Answer with one of the outcomes given here: yes = active, no = inactive

Recorded results for 6 molecules are shown here.
molecule="COC(=O)C1CCCN1C(=O)[C@@H]1CCCN1C(=O)[C@H](Cc1c[nH]c2ccccc12)NC(=S)Nc1cc(C(F)(F)F)cc(C(F)(F)F)c1 (some centres undefined)" label_class=no
molecule="CN(C)c1ncnc2c1ccn2C1OC(CO)C(O)C1O (centres undefined)" label_class=no
molecule=COc1ccc(C(=O)c2cc(OC)c3c(c2)OCO3)cc1O label_class=no
molecule=Fc1ccc(-c2nc(-c3nc4ncccc4[nH]3)cc3c2[nH]c2ccccc23)cc1F label_class=no
molecule=CC(C)(C)n1cc(-c2ccnc(NCCCNS(=O)(=O)c3ccc(Br)cc3)c2)c(-c2cccc(O)c2)n1 label_class=no
molecule=CCN(CC)c1ccc2[nH]c3c(C(N)=O)cc(=O)c(=O)c=3oc2c1 label_class=yes

What outcome does the record of this test show for O=C(c1c[nH]c(=O)c(-c2ccccc2)c1)c1ccccc1O ?
no

Then what about the molecule CNC(=S)NNC(=O)C1CC1 ?
no

Then what about the molecule C/C(=N/NC(=S)Nc1ccccc1)c1nc2ccc(Cl)cc2[nH]1 ?
yes

Then what about the molecule O=C(/C=C/c1ccccc1)c1cccc(O)c1 ?
no

Then what about the molecule C=COC(=O)CCCCCCCCC ?
no

Then what about the molecule CN(C)CCCC(C#N)c1ccccc1 (centres undefined) ?
no

Then what about the molecule O=C1/C(=C/c2ccc(Cl)cc2)CN(C(=O)CCN2CCC(=NO)CC2)C/C1=C\c1ccc(Cl)cc1 ?
yes

* * *

# Test system: NCI-H322M lung
# Assay overview: NCI-60 one-dose screen, 48 h
# Applied conditions: 10 µM unless noted
Compounds without any hit were thinned out: in the full panel of roughly 83,000, 20% have a hit. The source made the active and inactive calls. The calls were made as follows: active = growth percent below 10; inactive = the rest.
Answer with one of the outcomes given here: active, inactive

compound=COc1cc(-c2nc(-c3nc4ccc(Cl)cc4[nH]3)cc3c2[nH]c2ccccc23)cc(OC)c1OC label_class=inactive
compound=Cc1cc(C2(c3cc(C)c(O)cc3C)OS(=O)(=O)c3ccccc32)c(C)cc1O label_class=inactive
compound=O=C1c2c(c3c4ccccc4n(CCCCCCBr)c3c3[nH]c4ccccc4c23)C(=O)N1O label_class=inactive

What outcome does the record of this test show for COc1ccc(CNCCCN2C(=O)c3ccc4c5c(ccc(c35)C2=O)C(=O)N(CCCNCCCCNCCCN)C4=O)c(OC)c1OC ?
inactive

Then what about the compound COc1cccc(/C=C/C(=O)Nc2cc(OC)c3c(c2)OCO3)c1 ?
inactive

Then what about the compound CCC1=CCC[C@@]2(C)CCC[C@@]3(C)CCCC(C)(C)[C@]1([O-])[O+]32 ?
inactive

Then what about the compound CCNc1nc(S(=O)(=O)CC)nc2ccccc12 ?
inactive

Then what about the compound C/C(=C\c1ccc(OCC(=O)O)c(Cl)c1Cl)[N+](=O)[O-] ?
inactive

Then what about the compound Cc1nc2cncc(C#Cc3cncc(C(=O)Nc4ccc(CN5CCN(C)CC5)c(C(F)(F)F)c4)c3)c2nc1C ?
active

Then what about the compound Clc1cc2c(nn1)Nc1ccccc1S2 ?
inactive

Then what about the compound CN1C(=O)N(C)C2C1NN=c1s/c(=C\C=C\c3ccccc3)c(=O)n12 (stereo not given) ?
inactive

Then what about the compound O=C(NCc1cn(Cc2cccc(Oc3ccccc3)c2)nn1)c1cccnc1Nc1ccc(F)cc1 ?
inactive

Then what about the compound Cc1ccc(S(=O)(=O)n2cc(C(=O)C(=O)N3CCOCC3)c3ccccc32)cc1 ?
inactive

Then what about the compound c1ccc(-c2nc(N3CCNCC3)c3nc(-c4ccccc4)oc3n2)cc1 ?
inactive

Then what about the compound COc1ccc2[nH]c(=O)c3c4ccccc4cn3c2c1 ?
inactive

Then what about the compound COc1cc(-c2nn(-c3cccc(NC(=O)Nc4cccc(C(F)(F)F)c4)c3)cc2-c2ccncc2)ccc1Cl ?
inactive

Then what about the compound COc1ccc(/C=C2\N=C(c3ccccc3)N(C(=O)c3ccccc3O)NC2=O)cc1 ?
inactive

Then what about the compound Cc1nc2ncccc2nc1Nc1ccc(S(=O)(=O)Nc2ccccn2)cc1 ?
inactive

Then what about the compound COc1cc(-c2nn(-c3cccc(NC(=O)Nc4cc(C(F)(F)F)cc(C(F)(F)F)c4)c3)cc2-c2ccncc2)ccc1Cl ?
inactive

Then what about the compound Nc1ccc(C(=O)CSc2nc3ccccc3[nH]2)cc1 ?
inactive
